inhibition at 0.1 µM listing for selected molecules.
- Assay Target: UniProtKB P28845
- Sequence (P28845 whole entry): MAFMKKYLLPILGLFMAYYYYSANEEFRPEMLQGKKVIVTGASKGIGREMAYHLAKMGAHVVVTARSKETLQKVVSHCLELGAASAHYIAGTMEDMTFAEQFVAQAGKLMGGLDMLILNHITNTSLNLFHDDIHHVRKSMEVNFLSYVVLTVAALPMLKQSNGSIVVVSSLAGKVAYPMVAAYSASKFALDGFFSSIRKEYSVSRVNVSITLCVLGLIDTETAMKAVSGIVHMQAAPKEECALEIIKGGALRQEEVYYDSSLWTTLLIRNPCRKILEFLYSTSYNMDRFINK
- Experimental Protocol: biochemical
- Settings: read-out: Average % inhibition at 100 nM

Molecule: C[C@@H](c1ccc(-c2cncc(F)c2)cc1)N1CC[C@](CCC(=O)O)(c2ccc(F)cc2)OC1=O [EXAMPLE 70]
inhibition at 0.1 µM: 49.7%
//
Molecule: C[C@@H](c1ccc(-c2cccnc2)cc1)N1CC[C@](CCC(N)=O)(c2ccc(F)cc2)OC1=O [EXAMPLE 41]
inhibition at 0.1 µM: 96.8%
//
Molecule: COc1ccc(-c2ccc([C@H](C)N3CC[C@](CCCNS(C)(=O)=O)(c4ccccc4)OC3=O)cc2)cn1 [EXAMPLE 94]
inhibition at 0.1 µM: 98.7%
//
Molecule: C[C@@H](c1ccc(-c2cccnc2)cc1)N1CC[C@](CCCNS(C)(=O)=O)(c2ccccc2)OC1=O [EXAMPLE 91]
inhibition at 0.1 µM: 90.2%
//
Molecule: C[C@@H](c1ccc(-c2ccn(C)n2)cc1)N1CC[C@](CCCO)(c2ccccc2)OC1=O [EXAMPLE 100]
inhibition at 0.1 µM: 93.1%
//
Molecule: Cc1cc(-c2ccc([C@H](C)N3CC[C@@](C)(c4ccc(F)cc4)OC3=O)cc2)ccn1 (single isomer, unassigned) [EXAMPLE 107.1]
inhibition at 0.1 µM: 95.5%
//
Molecule: C[C@@H](c1ccc(-c2cncnc2)cc1)N1CC[C@](CCCO)(c2ccc(F)cc2)OC1=O [EXAMPLE 129]
inhibition at 0.1 µM: 93.9%
